# targetUnderTest: hGPR120 (Homo sapiens, UniProt Q5NUL3)
# Construct: expressed in transfected cells; host or cells: CHO-K1
# Sequence (Q5NUL3 whole entry): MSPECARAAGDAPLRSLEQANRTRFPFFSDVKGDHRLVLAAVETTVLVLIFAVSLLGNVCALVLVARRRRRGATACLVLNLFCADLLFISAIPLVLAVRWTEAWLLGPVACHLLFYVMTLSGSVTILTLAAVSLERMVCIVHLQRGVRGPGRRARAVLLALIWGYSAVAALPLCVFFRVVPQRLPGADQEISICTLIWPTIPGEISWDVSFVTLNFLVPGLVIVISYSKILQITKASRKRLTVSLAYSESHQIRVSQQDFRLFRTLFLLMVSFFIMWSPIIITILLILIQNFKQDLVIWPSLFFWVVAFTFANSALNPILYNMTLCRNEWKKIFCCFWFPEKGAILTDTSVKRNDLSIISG
# testSummary: Measurement of activity of GPR120 agonist (cell-based assay), calcium fluorescence
# conditionSummary: CHO-K1 cells expressing Ga16 and hGPR120; Calcium 5 dye fluorescence; activity class
readoutType: EC50

INSERT INTO results (compound, readouttype, result) VALUES
  ('O=C(O)C1CC1c1cc(F)c(OCc2cccnc2SC2CCC2)c(F)c1 (stereo not shown)', 'EC50', '< 200 nM'),
  ('COc1ccc(COc2ccc(C3CC3C(=O)O)cc2Cl)c(SC(C)C)n1 (stereo not shown)', 'EC50', '200 to 2000 nM'),
  ('CC(C)Sc1cccc(COc2c(F)cc(CCC(=O)O)cc2F)n1', 'EC50', '< 200 nM'),
  ('O=C(O)C1CC1c1ccc(OCc2cccnc2SC2CCCC2)cc1F (stereo not shown)', 'EC50', '200 to 2000 nM'),
  ('Cc1c(OCc2cccnc2SC(C)C)ccc(C2CC2C(=O)O)c1C (stereo not shown)', 'EC50', '2000 to 20000 nM'),
  ('CC(C)Sc1ncccc1COc1c(F)cc(CCC(=O)O)cc1F', 'EC50', '< 200 nM'),
  ('CC(Cc1cc(F)c(OCc2cccc(SC3CCC3)n2)c(F)c1)C(=O)O (stereo not shown)', 'EC50', '< 200 nM'),
  ('CC(Cc1ccc(OCc2cccnc2SCC2CC2)c(Cl)c1)C(=O)O (stereo not shown)', 'EC50', '< 200 nM'),
  ('CC(Cc1ccc(OCc2cccc(SC3CCCC3)n2)c(Cl)c1)C(=O)O (stereo not shown)', 'EC50', '< 200 nM'),
  ('CC(C)Sc1ncccc1COc1ccc(CCC(=O)O)cc1Cl', 'EC50', '< 200 nM'),
  ('COc1cc(CCC(=O)O)ccc1OCc1cccc(SC(C)C)n1', 'EC50', '< 200 nM'),
  ('O=C(O)C1CC1c1ccc(OCc2cccnc2SC2CCC2)c(F)c1 (single isomer, unassigned) [Example 169]', 'EC50', '< 200 nM'),
  ('CC(C)Sc1ncccc1COc1c(F)cc(CC(C)C(=O)O)cc1F (stereo not shown)', 'EC50', '< 200 nM'),
  ('O=C(O)C1CC1c1ccc(OCc2cccc(SC3CCC3)n2)c(Cl)c1 (stereo not shown) [Example 132]', 'EC50', '< 200 nM'),
  ('Cc1ccc(COc2ccc(CCC(=O)O)cc2Cl)c(SC2CCCC2)n1', 'EC50', '200 to 2000 nM'),
  ('CC(Cc1ccc(OCc2cccc(SC3CCC3)n2)c(Cl)c1)C(=O)O (stereo not shown)', 'EC50', '< 200 nM'),
  ('O=C(O)CCc1ccc(NCc2cccnc2SC2CCCC2)cc1', 'EC50', '200 to 2000 nM'),
  ('O=C(O)CCc1cc(F)c(OCc2cccnc2SCCC(F)(F)F)c(F)c1', 'EC50', '200 to 2000 nM'),
  ('O=C(O)CCc1ccc(OCc2cccnc2SCC2CC2)cc1F', 'EC50', '200 to 2000 nM'),
  ('O=C(O)CCc1cc(F)c(OCc2cccnc2SC2CCCCC2)c(F)c1', 'EC50', '200 to 2000 nM'),
  ('CC(Cc1ccc(OCc2cccnc2SCC2CC2)c(F)c1)C(=O)O (stereo not shown)', 'EC50', '< 200 nM'),
  ('O=C(O)C1CC1c1ccc(OCc2cccc(SCC3CC3)n2)c(Cl)c1 (stereo not shown)', 'EC50', '< 200 nM'),
  ('O=C(O)C1CC1c1ccc(OCc2cccc(SC3CCCC3)n2)c(F)c1 (single isomer, unassigned) [Example 134]', 'EC50', '< 200 nM'),
  ('O=C(O)C1CC1c1ccc(OCc2cccnc2SC2CCC2)c(F)c1 (single isomer, unassigned) [Example 133]', 'EC50', '200 to 2000 nM'),
  ('O=C(O)CCc1cc(F)c(OCc2cccc(SC3CCCC3)n2)c(F)c1', 'EC50', '< 200 nM'),
  ('CCC(C)Sc1ncccc1COc1ccc(CC(C)C(=O)O)cc1F (stereo not shown)', 'EC50', '< 200 nM'),
  ('CC(C)Sc1ncccc1COc1ccc(C2CC2C(=O)O)cc1F (stereo not shown)', 'EC50', '< 200 nM'),
  ('O=C(O)Cc1coc2c(F)c(OCc3cccnc3SC3CCCC3)c(F)cc12', 'EC50', '< 200 nM'),
  ('O=C(O)C1CC1c1ccc(OCc2cccc(SC3CCCC3)n2)c(F)c1 (single isomer, unassigned) [Example 168]', 'EC50', '< 200 nM'),
  ('O=C(O)CCc1ccc(OCc2cccc(SC3CCCC3)n2)c(Cl)c1', 'EC50', '< 200 nM'),
  ('O=C(O)CCc1ccc(OCc2cccnc2SCC2CC2)cc1', 'EC50', '< 200 nM'),
  ('O=C(O)CCc1ccc(OCc2cccnc2SC2CCCC2)cc1F', 'EC50', '< 200 nM'),
  ('O=C(O)CCc1ccc(NCc2cccc(SC3CCCC3)n2)cc1', 'EC50', '2000 to 20000 nM'),
  ('CCCSc1ncccc1COc1ccc(C2CC2C(=O)O)cc1Cl (stereo not shown)', 'EC50', '< 200 nM'),
  ('O=C(O)C1CC1c1cc(F)c(OCc2cccnc2SCC2CC2)c(F)c1 (single isomer, unassigned) [Example 136]', 'EC50', '200 to 2000 nM'),
  ('O=C(O)C1CC1c1ccc(OCc2cccnc2SC2CCC2)c(Cl)c1 (stereo not shown) [Example 102]', 'EC50', '< 200 nM'),
  ('Cc1c(OCc2cccc(SC(C)C)n2)ccc(C2CC2C(=O)O)c1C (stereo not shown)', 'EC50', '2000 to 20000 nM');

Value source: patent US9447044B2
